cytotoxicity at 10 µM listing for selected compounds.
# assay.name: Toxicity liver stage against HepG2, at 10uM
# Format: cell-based
# Set-up: test concentration 10 uM, cell line HepG2-A16-CD81EGFP
# setup.conditions: human, HepG2-A16-CD81EGFP cells; read-out: INHIBITION
measured.endpoint: cytotoxicity at 10 µM (%)

# compound, observed
data = [
    ("COC[C@]1(O)CCN(c2cc(C3CC3)ncn2)CC1(C)C", -1.53),
    ("NC(=O)C1CCN(CC(=O)N(Cc2ccccc2)Cc2nccs2)CC1", -5.08),
    ("CCC1=N[C@@]2(CC[C@@H]3CN(S(=O)(=O)CC(C)C)C[C@@H]32)C(=O)N1CC1CC1", 0.457),
    ("CC(=O)N1CCC(c2ccnc(Nc3ccc(C)cn3)n2)C1 (stereo not drawn)", -16.7),
    ("Cc1nnc([C@@H]2C[C@H]3CN(C(=O)c4sccc4C)C[C@H]3O2)[nH]1", 16),
    ("Cc1noc([C@@]23CCO[C@@H]2CCN(S(=O)(=O)c2cccnc2)C3)n1", -103),
    ("CC(C)(C)c1cc(C(=O)N2CCOC(c3cnccn3)C2)[nH]n1 (stereo not drawn)", 2.02),
    ("Fc1ccc(N2CCOC(Cc3cccnc3)C2)cc1 (stereo not drawn)", -16.3),
    ("Cc1nn(C)c(Cl)c1CNCc1cccnc1N1CCOCC1", -4.17),
    ("CNC(=O)COc1nc(C(C)(C)C)no1", -0.425),
    ("COc1ccc(C(C)NCCC(N)=O)cc1F (stereo not drawn)", -7.77),
    ("COc1ccc(C)cc1-n1cnnc1C1CCOCC1", 11.2),
    ("Cc1ccc(C(=O)NCCCN2CCOCC2)c(Cl)c1", -12.5),
    ("CC(NC(=O)c1cc2n(n1)CCCN(C(C)C)C2)c1cn2ccsc2n1 (stereo not drawn)", -3.39),
    ("COCCN(C)C[C@@H]1CN(C(=O)c2ccc(=O)n(C)c2)C[C@@H]1CO", -11.1),
    ("O=C(NCCCn1cccn1)N1CCCC1c1ccsc1 (stereo not drawn)", -7.86),
    ("Nc1nc(CNc2nccc(CCC(F)(F)F)n2)cs1", -2.38),
    ("CC(C)OCCSc1nnnn1C1CCOCC1", -0.494),
    ("Cn1cc(NC(=O)NC2CCCN(c3ccccc3Cl)C2=O)cn1 (stereo not drawn)", -41.8),
    ("CCN1CCN(Cc2nc(CCc3ccccc3)n[nH]2)CC1", -10.7),
    ("O=C1Nc2ccccc2CN(CC2CCCC2)C12CCNC2 (stereo not drawn)", 7.83),
    ("COCCN1Cc2ccccc2C2(CCN(S(C)(=O)=O)CC2)C1", 0.121),
    ("O=C1CC(c2ccc(O)cc2)c2c(n3ccsc3nc2=O)N1 (stereo not drawn)", -3.12),
    ("CCc1cc(CNC(=O)N2Cc3ccccc3N(C)CC2C)on1 (stereo not drawn)", 4.38),
    ("Cc1ccc(C(=O)NCC2(O)CCOCC2)cc1F", 6.79),
    ("c1nc(N2CCc3nc[nH]c3C2)c2cc[nH]c2n1", -5.71),
    ("Cc1ccc(C(O)CNC(=O)CCCc2ccccn2)o1 (stereo not drawn)", 0.166),
    ("Cc1cccc(CNC(=O)C2CCC(=O)N(Cc3ccccc3F)C2)n1 (stereo not drawn)", -3.75),
    ("COc1cc(Cc2nc3c([nH]2)CC(C)(C)CNC3=O)cc(OC)c1", -6.27),
    ("O=C(Cc1ccccc1F)N1CCN(C(=O)c2cccc(F)c2)CC1", 7.7),
    ("CN(CC(F)(F)F)C(=O)c1ccc(F)c(NS(C)(=O)=O)c1", -2.05),
    ("Cc1noc(C)c1CN1CCN(Cc2cccnc2)c2ncccc2C1", -67.1),
    ("Cc1occc1C(=O)N1CCc2ncnc(C3CCOC3)c2CC1 (stereo not drawn)", -85),
    ("CCC(NCc1ccccc1)c1ccccc1OCC(=O)NC (stereo not drawn)", 16.2),
    ("CCc1ccccc1NC(=O)N1CCn2cnc(COC)c2C1", -11.8),
    ("CCS(=O)(=O)N1CCCC(c2ccnc(N(C)C)c2)C1 (stereo not drawn)", -5.16),
    ("O=C(NC1CCN(c2ncccn2)CC1)c1cc2c([nH]c1=O)CCC2", 1.28),
    ("CCn1ccnc1CN1CCN(CCC(=O)NC2CCCCC2)CC1", -12.3),
    ("Cc1nc(NCc2cccc(F)c2)cc(C2CCNCC2)n1", 2.79),
    ("Cc1cnc(CN(C)C2CCCN(Cc3noc(C4CC4)n3)C2)cn1 (stereo not drawn)", -2.13),
    ("CCC(Nc1ccc(Oc2cccc(C#N)c2)cc1)C(N)=O (stereo not drawn)", 35.2),
    ("CN(C)CCOCC1CN(C(=O)N2CCCC2)Cc2ccnn2C1 (stereo not drawn)", 4.55),
    ("O=C(N1CCCC(n2cncn2)C1)C1(c2cccc(F)c2)CCC1 (stereo not drawn)", 0.322),
    ("CN(C)c1ncccc1N(C)C(=O)Cn1cc(-c2ccccc2)nn1", -2.2),
    ("CCc1nnsc1C(=O)NCCC1CCCN(C(C)C)C1 (stereo not drawn)", 4.95),
    ("CC(C)N1CCC(CC(=O)NC(C(=O)O)c2cc(F)ccc2F)CC1 (stereo not drawn)", 1.18),
    ("O=C(c1ccc[nH]1)N1CCc2ccc(S(=O)(=O)N3CCOCC3)cc2C1", 3.99),
    ("CC1=C(CCN2CC[C@@H](N3CCC(O)CC3)[C@H](O)C2)C(C)(C)CCC1", -4.42),
]
